The reported measurements were obtained from PubChem BioAssay (NCATS).

# target or test system: Phenylethanolamine N-methyltransferase (Homo sapiens) (UniProt P11086)
# Sequence (P11086 whole entry, looked up): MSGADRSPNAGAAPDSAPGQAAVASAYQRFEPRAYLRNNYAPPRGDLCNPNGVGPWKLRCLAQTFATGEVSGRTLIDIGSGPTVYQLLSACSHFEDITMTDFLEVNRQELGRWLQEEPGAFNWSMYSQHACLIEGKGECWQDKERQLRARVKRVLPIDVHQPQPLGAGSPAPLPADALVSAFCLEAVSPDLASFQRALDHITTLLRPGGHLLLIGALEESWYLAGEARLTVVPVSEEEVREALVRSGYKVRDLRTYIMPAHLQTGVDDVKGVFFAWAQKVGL
# test: Confirmatory Screen for Target Class Profiling of Small Molecule Inhibitors of Methyltransferases (AID 1745852)
# condition parameters: MTase-Glo luminescence, SAH detection, recombinant enzyme; measured here: PNMT max response; stronger effect = lower value
measurement label: activity (%)
Reply numerically in %, unit not repeated.

Worked examples, 5 molecules total:
- molecule: "O=C(Nc1cccc(Nc2cc(Nc3cccc(C(F)(F)F)c3)ncn2)c1)C1CC1"
  activity, %: -61.4
- molecule: "CC1=CC(=O)[C@@]2(C(C)C)C[C@@H]12"
  activity, %: -13.4
- molecule: "S=c1ssc2c1CCC2"
  activity, %: -71
- molecule: "COc1cc(N2CCOCC2)ccc1Nc1ncc(F)c(Nc2ccccc2NS(C)(=O)=O)n1"
  activity, %: -0.832
- molecule: "COc1cc(O)c(C(=O)CCc2ccc(O)cc2)c(O[C@@H]2O[C@H](CO)[C@@H](O)[C@H](O)[C@H]2O)c1"
  activity, %: 0.533

# input Provide only the value of recorded activity for COC(=O)c1ccc(=O)c2nc3/c(=C/O)c(O)cc(=O)c3[nH]c12
# output -28.7

# input Look up and state reported activity for Oc1cc(CNC(=S)/C=C/c2cc(O)c(O)c(Br)c2)cc(O)c1O
# output -0.984

# input Give the reported value of activity for this record: CNCCN(C)Cc1cn[nH]c1-c1ccc(OC2CC(OCCC3CCOCC3)C2)cc1 (stereo not drawn)
# output -1.61

# input Report activity for C=CC(=O)Nc1cccc(Nc2nc(Nc3ccc(Oc4ccnc(C(=O)NC)c4)cc3)ncc2F)c1
# output -10.6

# input For the molecule CN(Cc1nccs1)c1ncnc2ccc(-c3ccc4c(c3)OCO4)cc12 , report activity.
# output -84.4

# input Input C=C1C(=O)O[C@@H]2CC(C)=C([C@@H](C)CCCO)[C@@H](OC(=O)C(C)C)[C@H]12 , output reported activity.
# output 1.36

# input Name the recorded activity of the molecule listed here: CC(C)(C)c1ccc(-c2nc3ccccc3[nH]2)cc1
# output -70.3

# input Provide activity value for the following molecule: COc1ccc(-c2nc(-c3cc(C(F)(F)F)cc(C(F)(F)F)c3)n(Cc3ccc(C(N)=O)cc3)c2-c2ccc(OC)cc2)cc1
# output -1.33

# input Name the recorded activity of the molecule listed here: CC(C)n1cc(-c2ccc(Oc3ccccc3)cc2)c2c(N)ncnc21
# output -60.7

# input Consider the molecule CC(C)N(CCCNC(=O)Nc1ccc(C(C)(C)C)cc1)C[C@H]1O[C@@H](n2cc(Br)c3c(N)ncnc32)[C@H](O)[C@@H]1O . State its measured activity.
# output -94.2

# input Please give the documented activity of CNc1cc2c(Nc3cccc(Br)c3)ncnc2cn1
# output -74.4

# input Consider the molecule C[C@@H](Oc1cc(-n2cnc3ccc(OC4CCN(C)CC4)cc32)sc1C(N)=O)c1ccccc1Cl . State its measured activity.
# output -96.2

# input Entry Nc1ncnc2c1ncn2[C@@H]1O[C@H](C[C@@H](N)CC[C@H](N)C(=O)O)[C@@H](O)[C@H]1O needs its activity filled in; supply it.
# output -86.5

# input In one line, give reported activity of the entry CC1CCN(C(c2ccc(F)cc2)c2ccc(C(C)C(=O)O)cc2-c2ccc(C(F)(F)F)cc2)CC1 (stereo not drawn) .
# output 4.79

###

# test: UWB1.289-WTBRCA1 Cancer Cell Toxicity qHTS against the NCATS CANVASS Library (AID 1347354)
# condition parameters: UWB1.289-WTBRCA1 viability, CellTiter-Glo luminescence, 72 h; series mostly up to 38.3 µM
# Description: Natural products and their derivatives continue to be wellsprings of nascent therapeutic potential. […] To address this issue, the Canvass library of natural products was assembled (https://tripod.nih.gov/canvass), in collaboration with academic and industry researchers, for quantitative high-throughput screening (qHTS) across a diverse set of cell-based and biochemical assays. […]
Inconclusive results are not listed. Activity calls are given as the source filed them. Calls follow the shape of the dose curve; as a rule, active = well fitted cell-killing curve with a large enough effect; inconclusive = small, poorly fitted or top-dose-only effect, or effect the other way; inactive = flat fitted curve, though single readings scatter.
Returns: one label drawn from active, inactive

Here's what some known entries look like.
- compound: "CCCCCCCCCCCCCCC[C@H](O)C[C@@H](O)C[C@@H](O)C[C@@H](O)C[C@@H](O)C[C@H]1CC=CC(=O)O1"
  class label: "active"
- compound: "CCCCCCC[C@@H](C/C=C/CCC(=O)NCCc1c[nH]c2ccccc12)OC"
  class label: "inactive"
- compound: "O=C1CC(c2cc(O)cc(O)c2)Oc2cc(O)ccc21 (stereo unspecified)"
  class label: "inactive"
- compound: "COc1cc(/C=C2/C(=O)N(c3ccc(O)cc3C(=O)O)[C@H](c3ccc(O)c(OC)c3)C2C(=O)Nc2ccc(O)cc2C(=O)O)ccc1O (stereo partly specified)"
  class label: "inactive"
- compound: "O=C(O)CC1OC(=O)c2c(O)cccc21 (stereo unspecified)"
  class label: "inactive"

# input What classification did CN1CCc2cc3c(c4c2[C@H]1[C@@H](O)c1ccccc1-4)OCO3 end up with in this test?
# output inactive

# input How was CC(=O)[C@@H]1[C@@H](O)C[C@H]2[C@]3(C)CC[C@H]4C(C)(C)CCC[C@]4(CO)[C@H]3C[C@H]3OC(=O)[C@@H]1[C@@]32C classified in this test?
# output inactive

# input Status in this test for C[C@@H]1O[C@H](c2c(O)cc(O)c3c(=O)cc(-c4ccc(O)cc4)oc23)[C@H](O)[C@H](O)[C@H]1O ?
# output inactive

# input Test call, this compound: O=C(O)Cc1c[nH]c2ccccc12
# output inactive

# input Outcome? C=C(C)C(=O)O[C@H]1C[C@H](C)[C@@H](OC(C)=O)CC[C@@]2(C)O[C@@H]2[C@H]2OC(=O)C(COC(C)=O)=C12
# output active

# input I would be grateful if you could indicate the recorded call for CC1=CC[C@@]2(C[C@@H]1O)[C@@H](C(=O)O)CC[C@H]2C(C)C .
# output inactive

# input Could you kindly confirm the outcome this assay logged for CO[C@@H]1[C@H](O)[C@@H](C)O[C@@H](OC[C@@H]2C(C)OC(=O)/C=C/[C@H](C)C(O[C@@H]3O[C@H](C)CC4(OC(=O)O[C@@H]4C)C3O)[C@@H](C)CC(C)C(=O)CC[C@H]3OC23)[C@@H]1OC (stereo partly specified) ?
# output inactive

# input Given CO[C@@H]1[C@H](O)[C@@H](C)O[C@@H](OC[C@H]2/C=C/C=C/C(=O)C(C)C[C@H](C)C(O[C@@H]3O[C@H](C)CC4(OC(=O)O[C@@H]4C)C3O)[C@@H](C)/C=C/C(=O)OC2C)[C@@H]1OC (stereo partly specified) , state the outcome it received in this test.
# output inactive

# input Please share the test call associated with C[C@@]12CCC[C@@](C)(C(=O)O)[C@H]1C[C@@H](O)[C@]13C[C@H]4C[C@H](O[C@@]4(C)C1)[C@@H]23 .
# output inactive

# input I would be grateful if you could indicate the recorded call for C/C=C/C=C/C1(O)C2C=C3C(=O)CC45C(=O)C(O)=C(C)C(=O)C4C1C1(C(=O)C(O)=C(C)C(=O)C351)C2C (stereo unspecified) .
# output inactive

# input Please share the test call associated with CN1CC[C@]2(c3cccc4c3N[C@@H]3N(C)CC[C@]43[C@@]34CCN(C)[C@@H]3Nc3c([C@]56CCN(C)[C@H]5Nc5ccccc56)cccc34)c3ccccc3N[C@H]12 .
# output active

###

# test: qHTS Assay for Identification of Small Molecule Antagonists for NFkB Signaling Pathway (AID 895); further: on the % scale 0 is the no-effect control and ±100 the full control effect
# condition parameters: NFkB beta-lactamase reporter cells, FRET ratio 460/530, stimulated with 10 pM TNF alpha; series mostly up to 38.3 µM
# Procedure: NIH Molecular Libraries Screening Centers Network [MLSCN] NIH Chemical Genomics Center [NCGC] The TNF alpha/NFkB signaling pathway was assayed in NFkB-bla cells (Invitrogen), a ME-180 cervical carcinoma line containing a stably integrated beta-lactamase reporter gene controlled by a NFkB response element. […] The assay was screened at the EC50 of TNF alpha activation to identify inhibitors of TNF alpha/NFkB signaling. NCGC Assay Protocol Summary: […]
Inconclusive results are not listed. Calls of active or inactive are those of the source. Calls come from the whole dose curve; as a rule, active = well fitted inhibition curve with a large enough effect in the signal ratio, with a control signal flat (not every such curve was filed as active); inconclusive = small, poorly fitted or top-dose-only effect, or effect the other way, or a change in a side signal; inactive = flat fitted curve, though single readings scatter; the % refers to the signal ratio.
measurement label: outcome

Worked examples follow.
- compound smiles: "CC(C)(C)NC[C@H](O)COc1cccc2[nH]c(=O)[nH]c12"
  outcome: "inactive"
- compound smiles: "N[C@]1(C(=O)O)CCc2cc(C(=O)O)ccc21"
  outcome: "inactive"
- compound smiles: "O=C1CC[C@H](N2C(=O)c3ccccc3C2=O)C(=O)N1"
  outcome: "inactive"
- compound smiles: "C[C@@H]1CCN=C(N)S1"
  outcome: "inactive"
- compound smiles: "CN1CCN2c3ccccc3Cc3ccccc3[C@@H]2C1"
  outcome: "inactive"
- compound smiles: "NS(=O)(=O)c1cc2c(cc1Cl)N[C@@H]([C@@H]1C[C@@H]3C=C[C@H]1C3)NS2(=O)=O"
  outcome: "inactive"
- compound smiles: "Cc1cccc([C@@H]2CN(C)CCc3c2cc(O)c(O)c3Cl)c1"
  outcome: "inactive"
- compound smiles: "CCCCCCCCCCCCC/C=C\\[C@@H](O)[C@@H](N)CO"
  outcome: "inactive"

Then there is this compound:
# input Specify outcome for C[C@@](N)(C(=O)O)c1ccc(C(=O)O)cc1 and stop.
# output inactive
